# Tested on: mice bearing PSMA-expressing LNCAP cancer xenografts
# assay: Biodistribution of 68Ga-labeled compounds
# Format: in vivo
# condition context: 1 h post-injection
readout name: Tumor:Muscle ratio
Reply with just the number.

// known answers, use as guide
O=C([O-])CN1CCN(CC(=O)[O-])CCN(CC(=O)NCCCC[C@H](NC(=O)CNC(=O)CCCc2ccc(I)cc2)C(=O)NC[C@H]2CC[C@H](C(=O)N[C@@H](Cc3ccc4ccccc4c3)C(=O)NCCCC[C@H](NC(=O)N[C@@H](CCC(=O)O)C(=O)O)C(=O)O)CC2)CCN(CC(=O)[O-])CC1.[68Ga+3] [^68Ga-HTK03024] ... 6.74
Cc1ccc(CCCC(=O)NCC(=O)N[C@@H](CCCCNC(=O)CN2CCN(CC(=O)[O-])CCN(CC(=O)[O-])CCN(CC(=O)[O-])CC2)C(=O)NC[C@H]2CC[C@H](C(=O)N[C@@H](Cc3ccc4ccccc4c3)C(=O)NCCCC[C@H](NC(=O)N[C@@H](CCC(=O)O)C(=O)O)C(=O)O)CC2)cc1.[68Ga+3] [^68Ga-HTK03090] ... 7.09

Kindly consider the entry below.
// O=C([O-])CN1CCN(CC(=O)[O-])CCN(CC(=O)NCCCC[C@H](NC(=O)CNC(=O)CCCc2ccc(Cl)cc2)C(=O)NC[C@H]2CC[C@H](C(=O)N[C@@H](Cc3ccc4ccccc4c3)C(=O)NCCCC[C@H](NC(=O)N[C@@H](CCC(=O)O)C(=O)O)C(=O)O)CC2)CCN(CC(=O)[O-])CC1.[68Ga+3] [^68Ga-HTK03055] : Tumor:Muscle ratio value = 10.8

====

The reader will find reported Heart uptake values listed item by item below.
# Test system: mice bearing PSMA-expressing LNCAP cancer xenografts
# assay: Biodistribution of 68Ga-labeled compounds
# Format: in vivo
# condition context: 3 h post-injection
Please give a number only; it is taken to be in % ID/g.

O=C([O-])CN1CCN(CC(=O)[O-])CCN(CC(=O)NCCCC[C@H](NC(=O)CNC(=O)CCCc2ccc(Br)cc2)C(=O)NC[C@H]2CC[C@H](C(=O)N[C@@H](Cc3ccc4ccccc4c3)C(=O)NCCCC[C@H](NC(=O)N[C@@H](CCC(=O)O)C(=O)O)C(=O)O)CC2)CCN(CC(=O)[O-])CC1.[68Ga+3] [^68Ga-HTK03058] ... 4.85

Kindly consider the entry below.
// O=C([O-])CN1CCN(CC(=O)[O-])CCN(CC(=O)NCCCC[C@H](NC(=O)CNC(=O)CCCc2ccc(I)cc2)C(=O)NC[C@H]2CC[C@H](C(=O)N[C@@H](Cc3ccc4ccccc4c3)C(=O)NCCCC[C@H](NC(=O)N[C@@H](CCC(=O)O)C(=O)O)C(=O)O)CC2)CCN(CC(=O)[O-])CC1.[68Ga+3] [^68Ga-HTK03024] : Heart uptake value = 5.56

====

# System: mice bearing PSMA-expressing LNCAP cancer xenografts
# assay: Biodistribution of 68Ga-labeled compounds
# Format: in vivo
# condition context: 1 h post-injection
readout name: Thyroid uptake (% ID/g)
Please give a number only; it is taken to be in % ID/g.

// known answers, use as guide
Nc1ccc(CCCC(=O)NCC(=O)N[C@@H](CCCCNC(=O)CN2CCN(CC(=O)[O-])CCN(CC(=O)[O-])CCN(CC(=O)[O-])CC2)C(=O)NC[C@H]2CC[C@H](C(=O)N[C@@H](Cc3ccc4ccccc4c3)C(=O)NCCCC[C@H](NC(=O)N[C@@H](CCC(=O)O)C(=O)O)C(=O)O)CC2)cc1.[68Ga+3] [^68Ga-HTK03087] ... 0.74
O=C([O-])CN1CCN(CC(=O)[O-])CCN(CC(=O)NCC2CCC(C(=O)NC(Cc3ccc4ccc5cccc6ccc3c4c56)C(=O)NCCCCC(NC(=O)NC(CCC(=O)O)C(=O)O)C(=O)O)CC2)CCN(CC(=O)[O-])CC1.[68Ga+3] (stereo not drawn) [^68Ga-HTK03029] ... 1.57

Kindly consider the entry below.
// Cc1ccc(CCCC(=O)NCC(=O)N[C@@H](CCCCNC(=O)CN2CCN(CC(=O)[O-])CCN(CC(=O)[O-])CCN(CC(=O)[O-])CC2)C(=O)NC[C@H]2CC[C@H](C(=O)N[C@@H](Cc3ccc4ccccc4c3)C(=O)NCCCC[C@H](NC(=O)N[C@@H](CCC(=O)O)C(=O)O)C(=O)O)CC2)cc1.[68Ga+3] [^68Ga-HTK03090] : Thyroid uptake value = 3.36

FYI, the data here is from patent US20200339625A1.
